Tested on: FXR:RXRa (NR concentration 270 nM, RXRa partner concentration 90 nM)
assay.remarks: PBM binding z-score (relative to random genomic background probes); higher = stronger binding; sequences stand for … in GC…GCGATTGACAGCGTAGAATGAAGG
Outcome: Criterion met for PBM binding z-score of at least 6; Criterion not met for anything lower.

Some entries whose results are on file:
sequence.input	assay.target	cat
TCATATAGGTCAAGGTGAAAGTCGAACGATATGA	FXR:RXRa (NR concentration 270 nM, RXRa partner concentration 90 nM)	Criterion met
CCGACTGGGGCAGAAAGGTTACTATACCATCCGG	FXR:RXRa (NR concentration 270 nM, RXRa partner concentration 90 nM)	Criterion not met

Asked: Check this sequence for PBM binding z-score at or above 6: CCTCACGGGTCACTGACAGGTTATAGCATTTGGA
Given back: Criterion not met

Asked: Please check the record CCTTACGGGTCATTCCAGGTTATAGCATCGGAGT and state if its PBM binding z-score is at or above 6.
Given back: Criterion met

Asked: Entry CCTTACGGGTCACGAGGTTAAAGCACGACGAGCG : is its PBM binding z-score no less than 6?
Given back: Criterion met

Asked: Please tell me: is the sequence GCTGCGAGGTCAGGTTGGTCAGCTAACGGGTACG at or over 6 in terms of PBM binding z-score?
Given back: Criterion not met
